Test system: HCT-116 colon
Experiment: NCI-60 one-dose screen, 48 h (100 = growth as untreated, 0 = no growth, -100 = all killed)
Conditions: 10 µM unless noted
Compounds without any hit were thinned out: in the full panel of roughly 83,000, 20% have a hit.
ASSAY READOUT: growth (%)
Expressed in %, but write only the number.

Use these answered entries as a reference point.
{"COMPOUND": "c1ccc2c(c1)CCCc1nnc3nc4ccccc4n3c1-2", "TARGET DESC": "HCT-116 colon", "U": "%", "growth": 17}
{"COMPOUND": "O=C(/C=C/c1cccc(Cl)c1Cl)Nc1ncc(Cc2ccccc2Cl)s1", "TARGET DESC": "HCT-116 colon", "U": "%", "growth": 24.2}
{"COMPOUND": "CCN1C(=O)N(CC)C2C1NN=c1s/c(=C\\c3ccc(C(F)(F)F)cc3)c(=O)n12 (stereo not given)", "TARGET DESC": "HCT-116 colon", "U": "%", "growth": 9.6}
{"COMPOUND": "NC(=O)c1cnc(Nc2cccc(N)c2)nc1NCCCNC(=O)C1CCC1", "TARGET DESC": "HCT-116 colon", "U": "%", "growth": 65.5}
{"COMPOUND": "CCOC(=O)C1=C(C)C(Cl)=N/C1=C\\c1[nH]c(Cl)c(C)c1C(=O)OCC", "TARGET DESC": "HCT-116 colon", "U": "%", "growth": 84.5}
{"COMPOUND": "COc1ccc(C2=CN3CC=CC3CC2=O)cc1 (stereo not given)", "TARGET DESC": "HCT-116 colon", "U": "%", "growth": 90.3}
{"COMPOUND": "COc1cc(C(=O)n2nc(N3CCOCC3)c3cc(-n4cccc4)ccc32)cc(OC)c1OC", "TARGET DESC": "HCT-116 colon", "U": "%", "growth": 48.6}
{"COMPOUND": "COc1ccc(/C=C2\\COc3ccc(O)cc3C2=O)cc1", "TARGET DESC": "HCT-116 colon", "U": "%", "growth": 77.7}
{"COMPOUND": "CC1(C)OB(O)c2cc(-c3nc4ccc5[nH]ncc5c4c4c3CCCC4)ccc21", "TARGET DESC": "HCT-116 colon", "U": "%", "growth": 22.7}

// query Reported growth, compound `C#CCNC(=O)[C@]1(C)CCC[C@@]2(C)[C@H]1CC=C1C=C(C(C)C)CC[C@@H]12` : ____
// result 107
